Hey, just so you know, these numbers are from ChEMBL document CHEMBL4813977.

System Tested: Mast/stem cell growth factor receptor Kit (Homo sapiens)
Test Settings: dose 10.0 nM
Description: Inhibition of human c-KIT at 10 nM using poly[Glu:Tyr] (4:1) as substrate in presence of [gamma-33P]-ATP by radiometric assay relative to control
Readout Kind: inhibition
Mention the unit after the number when you answer.

Would you please look over these solved cases?
Given the entry CCN1CCN(Cc2ccc(C(=O)Nc3ccc(C)c(NC(=O)c4cnc5cccnn45)c3)cc2C(F)(F)F)CC1 , report its measured inhibition.
27%

Data request, read-out inhibition, for CCN1CCN(Cc2ccc(C(=O)Nc3ccc(C)c(NC(=O)c4ccn(C)n4)c3)cc2C(F)(F)F)CC1
14%

Entry under review: CCN1CCN(Cc2ccc(C(=O)Nc3ccc(C)c(NC(=O)c4n[nH]c5ccccc45)c3)cc2C(F)(F)F)CC1 . Reported inhibition?
43%

Look up inhibition for this compound: CCN1CCN(Cc2ccc(C(=O)Nc3ccc(C)c(NC(=O)c4cnnc5ccccc45)c3)cc2C(F)(F)F)CC1
10%

Form field: reported inhibition of Cc1ccc(NC(=O)c2ccc(C(F)(F)F)nc2)cc1NC(=O)c1cnc2ccccn12
35%

***
Fill blank: measured inhibition of the compound CCN1CCN(Cc2ccc(C(=O)Nc3ccc(C)c(NC(=O)c4n[nH]c5ncccc45)c3)cc2C(F)(F)F)CC1 is ____.
96%
